Test system: Escherichia coli
Experiment: Antibacterial activity against Escherichia coli ATCC 25922 after 18 to 20 hrs by broth microdilution method
Assay type: functional
Non-standard residues stand in square brackets, D forms with d. Residues, ends and D or L forms follow the SMILES beside them. *: point of attachment. Cha = N[C@@H](CC1CCCCC1)C(=O)O; Octanoyl = CCCCCCCC(=O)*; Dab = NCC[C@H](N)C(=O)O
Value type: MIC

CCCCCCCC(=O)N[C@@H](CCN)C(=O)N[C@H](C(=O)N[C@@H](CCN)C(=O)N[C@H](Cc1ccccc1)C(=O)N[C@@H](CC(C)C)C(=O)N[C@@H](CCN)C(=O)N[C@@H](C(=O)N[C@@H](CC(C)C)C(=O)N[C@@H](CCN)C(N)=O)C(C)C)[C@@H](C)CC (Octanoyl-[Dab]I[Dab][dF]L[Dab][dV]L[Dab]-NH2)    4 to 16 mg/L
CC(C)C[C@H](NC(=O)[C@@H](Cc1ccccc1)NC(=O)[C@H](CCN)NC(=O)[C@H](Cc1ccccc1)NC(=O)[C@H](CCN)NC(=O)[C@@H](N)CC1CCCCC1)C(=O)N[C@@H](CCN)C(=O)N[C@H](CC(C)C)C(=O)N[C@@H](Cc1ccccc1)C(=O)N[C@@H](CO)C(N)=O (H-[Cha][Dab]F[Dab][dF]L[Dab][dL]FS-NH2)    0.5 to 1 mg/L

Next item in the queue.
Query: MIC; subject: CCCCCCCC(=O)N[C@@H](CCN)C(=O)N[C@H](C(=O)N[C@@H](CCN)C(=O)N[C@H](Cc1ccccc1)C(=O)N[C@@H](CC(C)C)C(=O)N[C@@H](CCN)C(=O)N[C@@H](C(=O)N[C@@H](CC(C)C)C(=O)N[C@@H](CO)C(N)=O)C(C)C)[C@@H](C)CC (Octanoyl-[Dab]I[Dab][dF]L[Dab][dV]LS-NH2) 2 to 4 mg/L

* * *

Test system: Staphylococcus aureus
Assay: Bactericidal activity against Staphylococcus aureus ATCC 29213
Type: functional
Details: read-out: MBC99.9
Non-standard residues stand in square brackets, D forms with d. Residues, ends and D or L forms follow the SMILES beside them. *: point of attachment. Cha = N[C@@H](CC1CCCCC1)C(=O)O; Decanoyl = CCCCCCCCCC(=O)*; Heptanoyl = CCCCCCC(=O)*; Octanoyl = CCCCCCCC(=O)*; Dab = NCC[C@H](N)C(=O)O
Value type: MBC

CC(C)C[C@H](NC(=O)[C@@H](Cc1ccccc1)NC(=O)[C@H](CCN)NC(=O)[C@H](Cc1ccccc1)NC(=O)[C@H](CCN)NC(=O)[C@@H](N)CC1CCCCC1)C(=O)N[C@@H](CCN)C(=O)N[C@H](CC(C)C)C(=O)N[C@@H](Cc1ccccc1)C(=O)N[C@@H](CO)C(N)=O (H-[Cha][Dab]F[Dab][dF]L[Dab][dL]FS-NH2)    8 µg/mL
CCCCCCCCCC(=O)N[C@@H](CCN)C(=O)N[C@H](C(=O)N[C@@H](CCN)C(=O)N[C@H](Cc1ccccc1)C(=O)N[C@@H](CC(C)C)C(=O)N[C@@H](CCN)C(=O)N[C@@H](C(=O)N[C@@H](CC(C)C)C(=O)N[C@@H](CO)C(N)=O)C(C)C)[C@@H](C)CC (Decanoyl-[Dab]I[Dab][dF]L[Dab][dV]LS-NH2)    4 to 8 µg/mL
CCCCCCC(=O)N[C@@H](CCN)C(=O)N[C@H](C(=O)N[C@@H](CCN)C(=O)N[C@H](Cc1ccccc1)C(=O)N[C@@H](CC(C)C)C(=O)N[C@@H](CCN)C(=O)N[C@H](CC(C)C)C(=O)N[C@@H](CC(C)C)C(=O)N[C@@H](CO)C(N)=O)[C@@H](C)CC (Heptanoyl-[Dab]I[Dab][dF]L[Dab][dL]LS-NH2)    16 to 32 µg/mL

Please go through the list and note MBC for each compound.
1. CCCCCCCC(=O)N[C@@H](CCN)C(=O)N[C@H](C(=O)N[C@@H](CCN)C(=O)N[C@H](Cc1ccccc1)C(=O)N[C@@H](CC(C)C)C(=O)N[C@@H](CCN)C(=O)N[C@@H](C(=O)N[C@@H](CC(C)C)C(=O)N[C@@H](CO)C(N)=O)C(C)C)[C@@H](C)CC (Octanoyl-[Dab]I[Dab][dF]L[Dab][dV]LS-NH2)
2. CCCCCCC(=O)N[C@@H](CCN)C(=O)N[C@@H](Cc1ccccc1)C(=O)N[C@@H](CCN)C(=O)N[C@H](Cc1ccccc1)C(=O)N[C@@H](CC(C)C)C(=O)N[C@@H](CCN)C(=O)N[C@H](CC(C)C)C(=O)N[C@@H](Cc1ccccc1)C(=O)N[C@@H](CO)C(N)=O (Heptanoyl-[Dab]F[Dab][dF]L[Dab][dL]FS-NH2)
3. CCCCCCC(=O)N[C@@H](CCN)C(=O)N[C@@H](Cc1ccccc1)C(=O)N[C@@H](CCN)C(=O)N[C@H](Cc1ccccc1)C(=O)N[C@@H](CC(C)C)C(=O)N[C@@H](CCN)C(=O)N[C@H](CC(C)C)C(=O)N[C@@H](CC(C)C)C(=O)N[C@@H](CO)C(N)=O (Heptanoyl-[Dab]F[Dab][dF]L[Dab][dL]LS-NH2)

1: 16 µg/mL; 2: 8 to 32 µg/mL; 3: 16 to 32 µg/mL
